tgt: UniProt P31639
Sequence (P31639 whole entry, species assumed): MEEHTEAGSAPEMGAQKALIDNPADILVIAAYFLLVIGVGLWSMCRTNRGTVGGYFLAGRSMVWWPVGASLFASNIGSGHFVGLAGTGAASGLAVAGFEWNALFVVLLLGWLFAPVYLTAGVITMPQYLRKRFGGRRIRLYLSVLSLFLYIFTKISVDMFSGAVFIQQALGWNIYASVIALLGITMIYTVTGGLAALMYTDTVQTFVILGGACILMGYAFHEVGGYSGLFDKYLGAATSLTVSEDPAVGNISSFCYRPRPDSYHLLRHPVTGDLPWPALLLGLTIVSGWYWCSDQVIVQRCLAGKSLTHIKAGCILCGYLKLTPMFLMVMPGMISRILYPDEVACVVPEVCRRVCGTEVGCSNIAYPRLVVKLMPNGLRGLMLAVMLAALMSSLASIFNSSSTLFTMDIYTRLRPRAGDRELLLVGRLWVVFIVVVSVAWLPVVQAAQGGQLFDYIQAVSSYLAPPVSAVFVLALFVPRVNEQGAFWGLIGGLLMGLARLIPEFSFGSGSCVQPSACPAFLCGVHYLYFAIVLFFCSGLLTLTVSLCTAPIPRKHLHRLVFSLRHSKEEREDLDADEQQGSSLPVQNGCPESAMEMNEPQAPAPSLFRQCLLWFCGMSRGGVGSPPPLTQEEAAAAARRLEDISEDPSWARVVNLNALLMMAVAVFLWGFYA
assay overview: Activity assay of SGLT2: [14C] methyl α-D-glucopyranoside uptake in SGLT2 transiently transferred HEK293 cells
condition parameters: 2 hours at 37° C.
pIC50: −log10 of the molar value.
measured endpoint: pIC50

compound: Cc1ccc([C@@H]2S[C@H](CO)[C@@H](O)[C@H](O)[C@H]2O)cc1Cc1ccc2c(c1)OCCO2 [Example 4]
tgt: UniProt P31639
pIC50: 6.88

[I] CCc1ccc([C@]23OC[C@](CO)(O2)[C@@H](O)[C@H](O)[C@H]3O)cc1Cc1ccc2c(c1)OCCO2 [Example 9]
[II] OC[C@@]12CO[C@@](c3ccc(Cl)c(Cc4ccc5c(c4)OCCO5)c3)(O1)[C@H](O)[C@@H](O)[C@@H]2O [Example 1]
Data request: Hello, I am sorting some records. Could you say if I or II has the smaller pIC50 value? Answer format: the label of the selected item.
Data returned: I
(I: 8.83, II: 9.24)

The measured values listed here are drawn from patent US10011627B2.
